# System: biotinyl-Phe-oxazolone
# Assay Remarks: self-aminoacylation, catalytic enhancement (BFO) (fold over background); higher = more active; k-Seq, kA / k0A0; sequences stand for … in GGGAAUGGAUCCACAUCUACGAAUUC…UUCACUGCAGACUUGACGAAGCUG
Fewer inactive variants are shown than the library holds.
Entries and their measured self-aminoacylation follow.
Would you mind answering with just the numeric figure?

CCACACUUCAUGCAAUGGGUC [Fam1B.1 aminoacylation ribozyme variant]	0.544
AUCCUUCAAACAAUCGGUCUG [Fam1A.1 aminoacylation ribozyme variant]	4.27
AUUCUCCUAGGUCAUCGCGUG [Fam2.2 aminoacylation ribozyme variant]	170

*Q* Determine its reported self-aminoacylation: AGUACCCGGGUCAUCGAGUGA [Fam2.1 aminoacylation ribozyme variant]
*A* 49.1

*Q* Determine its reported self-aminoacylation: AUUACCCUGGACAUCGACUGA [Fam2.1 aminoacylation ribozyme variant]
*A* 0.713

*Q* Determine its reported self-aminoacylation: CUACUUCAAACAAUCAGUCUU [Fam1A.1 aminoacylation ribozyme variant]
*A* 13.2

*Q* Determine its reported self-aminoacylation: CCACAAUUAAAGCAAUCGGUC [Fam1B.1 aminoacylation ribozyme variant]
*A* 0.833

*Q* Determine its reported self-aminoacylation: GACUUUGCUAAUAGUCGCAAG [Fam3.1 aminoacylation ribozyme variant]
*A* 2.88
